biological target: UniProtKB P54098; test: DNA polymerization assay, wild type POLγ; type: biochemical; conditions: 100 μM dNTP, read-out: WT AC50 (μM) at 100 μM
Sequence (P54098 whole entry): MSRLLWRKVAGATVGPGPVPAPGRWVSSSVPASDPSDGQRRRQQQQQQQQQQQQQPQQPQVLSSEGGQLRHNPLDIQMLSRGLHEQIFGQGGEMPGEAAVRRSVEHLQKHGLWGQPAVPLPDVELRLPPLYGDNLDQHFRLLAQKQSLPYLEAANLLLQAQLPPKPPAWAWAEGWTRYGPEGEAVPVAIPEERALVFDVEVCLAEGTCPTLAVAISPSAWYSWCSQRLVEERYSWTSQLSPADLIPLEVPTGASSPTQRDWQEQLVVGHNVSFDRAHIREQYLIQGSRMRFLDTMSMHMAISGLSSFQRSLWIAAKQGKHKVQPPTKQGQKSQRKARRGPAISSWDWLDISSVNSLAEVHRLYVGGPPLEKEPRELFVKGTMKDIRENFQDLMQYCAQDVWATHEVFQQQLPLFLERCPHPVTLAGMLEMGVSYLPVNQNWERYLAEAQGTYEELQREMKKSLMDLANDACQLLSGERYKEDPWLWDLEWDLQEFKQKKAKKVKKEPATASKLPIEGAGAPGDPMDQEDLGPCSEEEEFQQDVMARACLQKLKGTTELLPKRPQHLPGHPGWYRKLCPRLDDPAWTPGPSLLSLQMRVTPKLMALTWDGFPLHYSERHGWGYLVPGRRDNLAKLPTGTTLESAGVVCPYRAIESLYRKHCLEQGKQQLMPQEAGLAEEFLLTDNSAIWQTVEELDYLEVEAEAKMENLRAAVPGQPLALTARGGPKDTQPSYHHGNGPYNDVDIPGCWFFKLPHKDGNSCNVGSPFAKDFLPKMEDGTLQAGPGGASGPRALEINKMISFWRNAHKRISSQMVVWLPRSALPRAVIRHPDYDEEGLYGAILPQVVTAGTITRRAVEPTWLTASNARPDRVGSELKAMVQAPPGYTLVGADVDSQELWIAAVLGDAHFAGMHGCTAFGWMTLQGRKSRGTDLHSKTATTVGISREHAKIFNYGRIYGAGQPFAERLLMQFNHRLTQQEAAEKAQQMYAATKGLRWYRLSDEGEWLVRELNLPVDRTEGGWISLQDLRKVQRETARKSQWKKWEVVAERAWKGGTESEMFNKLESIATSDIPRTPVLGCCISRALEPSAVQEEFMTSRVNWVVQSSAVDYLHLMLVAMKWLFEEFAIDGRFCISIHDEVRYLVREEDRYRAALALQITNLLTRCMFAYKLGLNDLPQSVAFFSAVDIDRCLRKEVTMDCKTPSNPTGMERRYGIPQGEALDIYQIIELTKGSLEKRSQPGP
Sequence (Q9UHN1 whole entry partner): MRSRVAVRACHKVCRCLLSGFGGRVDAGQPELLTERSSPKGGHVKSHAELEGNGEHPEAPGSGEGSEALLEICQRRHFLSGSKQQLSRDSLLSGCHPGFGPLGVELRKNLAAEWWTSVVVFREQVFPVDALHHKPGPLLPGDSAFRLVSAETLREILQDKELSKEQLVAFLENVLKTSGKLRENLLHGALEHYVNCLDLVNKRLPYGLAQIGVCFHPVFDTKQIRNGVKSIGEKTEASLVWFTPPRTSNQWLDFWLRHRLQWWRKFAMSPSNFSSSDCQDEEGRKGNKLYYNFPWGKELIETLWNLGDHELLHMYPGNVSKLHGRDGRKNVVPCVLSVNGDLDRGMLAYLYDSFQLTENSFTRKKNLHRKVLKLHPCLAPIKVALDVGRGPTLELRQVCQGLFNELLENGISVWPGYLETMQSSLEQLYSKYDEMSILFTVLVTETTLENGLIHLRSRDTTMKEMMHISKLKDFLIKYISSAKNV
quantity: AC50 (µM)
Give bare numbers, in µM.

compound: Cc1cc(S(=O)(=O)Nc2cccc(C(=O)N(C)C)c2)c(C)cc1Cl
system: UniProtKB P54098
AC50 (µM): 5

Could I get AC50 for every one of these entries?
1. COc1cccc(-c2nc(NS(=O)(=O)c3cc(C)c(Cl)cc3C)cs2)c1
2. Cc1cc(S(=O)(=O)Nc2cccc(-c3nccs3)c2)c(C)cc1Cl
3. Cc1cc(S(=O)(=O)Nc2cccc(C(=O)N(C(C)C)C3COC3)c2)c(C)cc1Cl
4. Cc1cc(S(=O)(=O)Nc2ccc3c(c2)CC(=O)N3)c(C)cc1Cl
5. Cc1ccc(C)c(S(=O)(=O)Nc2cccc(C(=O)N3CCOCC3C#N)c2)c1 (stereo not drawn)
6. Cc1cc(S(=O)(=O)Nc2cccc(-c3ncco3)c2)c(C)cc1Cl

1: 0.7; 2: 0.2; 3: 20; 4: 6; 5: 1; 6: 0.6
